# test_summary: Cellular viability qHTS for adrenocortical cancer (ACC) cell line NCI-H295R (AID 1963990); further: nearly all actives have a fitted effect of over 60% in size
# measurement_parameters: CellTiter-Glo ATP luminescence, 48 h; series mostly up to 46.1 µM
Results filed as inconclusive are left out. The source made the active and inactive calls. The call rests on the fitted dose curve; in most records, active means well fitted cell-killing curve with a large enough effect; inconclusive means small, poorly fitted or top-dose-only effect; inactive means flat fitted curve, though single readings scatter.
Choose one outcome from this list and give only that: Y (active), N (inactive)

Field: example entries. Status: answers known.
compound	label_class
CCCN1CCC[C@@H]2Cc3nc(N)ncc3C[C@H]21	N
C/C1=C/C[C@@H](/C(C)=C/c2csc(C)n2)OC(=O)C[C@H](O)C(C)(C)C(=O)[C@H](C)[C@@H](O)[C@@H](C)CCC1	Y
CC#C[C@]1(O)CC[C@H]2[C@@H]3C[C@H](C)C4=CC(=O)CC[C@]4(C)[C@H]3CC[C@@]21C	Y
CN1C(=O)COc2c(C(=O)NC3CN4CCC3CC4)cc(Cl)cc21 (centres undefined)	N
C[C@]12COC(=O)C[C@@H]1CC[C@@H]1[C@@H]2CC[C@@]2(C)[C@H]1CC[C@]2(C)O	N
Clc1ccc(COC(Cn2ccnc2)c2ccc(Cl)cc2Cl)cc1 (centres undefined)	Y
O=C(CCCN1CCC(n2c(=O)[nH]c3ccccc32)CC1)c1ccc(F)cc1	N
CCNC(=O)CC1N=C(c2ccc(Cl)cc2)c2cc(OC)ccc2-n2c(C)nnc21 (centres undefined)	N
C[C@]12CC[C@H]3[C@@H](CC[C@@]45O[C@@H]4C(O)=C(C#N)C[C@]35C)[C@@H]1CC[C@@H]2O	Y
COc1ccccc1N1CCNCC1	N

Write down the call the test reported for this compound. Item: O=[N+]([O-])c1c2ccccc2cc2ccccc12
N

Would you mind doing COC(=O)c1cncn1C(C)c1ccccc1 (centres undefined) as well?
N

Every entry's value here was drawn from PubChem BioAssay (NCATS).
